Provide the reported selectivity ratio of each item.
- ASSAY NAME: Selectivity index, ratio of TC50 for […] MDCK cells to IC50 for influenza A virus (A/Hanfang/359/95(H3N2))
- Type: toxicity, cell-based
- SETUP CONDITIONS: read-out: Selectivity Index

What value of measured selectivity ratio is listed for O=C1C=CC[C@@H]2[C@H]3CCC[N+]4([O-])CCC[C@@H](CN12)[C@@H]34 (some centres not stated) [OXYSOPHOCARPINE] ? > 1.9

Could you share which selectivity ratio value was measured for "O=c1cccc2n1C[C@@H]1CCCN3CCC[C@H]2[C@H]13" ? 4.3

Endpoint output: selectivity ratio of "O=C1C=CC[C@@H]2[C@H]3CCCN4CCC[C@@](O)(CN12)[C@@H]34" . Value? > 1.7

Which selectivity ratio is reported for this molecule? "O=C1C=C[C@@H](O)[C@@H]2[C@H]3CCCN4CCC[C@@H](CN12)[C@@H]34" > 3.1

Fill blank: measured selectivity ratio of the molecule "O=C1C=C[C@H](O)[C@@H]2[C@H]3CCCN4CCC[C@@H](CN12)[C@@H]34" is ____. 5.7

Find the recorded selectivity ratio belonging to CCOC(=O)C1=C[C@@H](OC(CC)CC)[C@H](NC(C)=O)[C@@H](N)C1 [OSELTAMIVIR] and report it. 2870

State the recorded selectivity ratio for this entry: NC(=O)c1ncn([C@@H]2O[C@H](CO)[C@@H](O)[C@H]2O)n1 [RIBAVIRIN] 813

---

- ASSAY NAME: Cytotoxic activity against African green monkey Vero cells assessed as cytopathogenic effect incubated for 48 hrs
- Assay type: cell-based
- SETUP CONDITIONS: chlorocebus sabaeus, read-out: TC50
Assignment: determine reported CC50 at 48 h for the given compounds.
Field format: number, assumed µM, no unit text.

// returns reported CC50 at 48 h for input "O=C1[C@@H](O)CC[C@@H]2[C@H]3CCCN4CCC[C@@H](CN12)[C@@H]34" 757

I am curious: what CC50 at 48 h value has been reported for O=C1C=C[C@@H](O)[C@@H]2[C@H]3CCC[N+]4([O-])CCC[C@@H](CN12)[C@@H]34 (some centres undefined) ? 115

---

- ASSAY NAME: Cytotoxic activity against MDCK cells assessed as cytopathogenic effect incubated for 48 hrs
- Format: cell-based, Canis lupus familiaris
- SETUP CONDITIONS: dog, read-out: TC50
Please go through the items and note down their CC50 at 48 h.

Please look up its CC50 at 48 h: "O=C1C=C[C@@H](O)[C@@H]2[C@H]3CCCN4CCC[C@@H](CN12)[C@@H]34" > 762 µM

Requested field: CC50 at 48 h. Item: "O=C1C=CC[C@@H]2[C@H]3CCCN4CCC[C@@](O)(CN12)[C@@H]34" > 762 µM

Name the reported CC50 at 48 h value associated with the compound O=C1C=CC[C@@H]2[C@H]3CCC[N+]4([O-])CCC[C@@H](CN12)[C@@H]34 (stereo partly drawn) > 762 µM

Reference source: ChEMBL document CHEMBL3588851
